Origin of measurements: ChEMBL document CHEMBL2439998

# Protocol: Half life in rat at 12 mg/kg, po
# Assay type: ADME, organism-based
# Set-up: dose 12 mg/kg, route oral
# Assay Conditions: in vivo
Quantity Kind: half-life (h)
One number for each entry, in h.

CCN(CC)c1ccc(/C=C/C(=O)c2ccc(OC)c3c2OC(C)(C)C=C3)cc1 : 3.19

Below: the item to evaluate.
Query :: Tell me its half-life given CCC(=O)Oc1ccc(C(=O)/C=C/c2ccc(N(CC)CC)cc2)c2c1C=CC(C)(C)O2 as the entry.
Result :: 2

* * *

# Protocol: Apparent clearance in rat at 12 mg/kg, po
# Type: ADME, organism-based
# Parameters: dose 12 mg/kg, route oral
# Assay Conditions: in vivo, read-out: CL(app) (converted)
Quantity Kind: CL/F (mL/min/kg)
One number for each entry, in mL/min/kg.

CCN(CC)c1ccc(/C=C/C(=O)c2ccc(OC)c3c2OC(C)(C)C=C3)cc1 : 747

Here is the next item to consider.
Query :: Hello, please tell me recorded CL/F for this one: CCC(=O)Oc1ccc(C(=O)/C=C/c2ccc(N(CC)CC)cc2)c2c1C=CC(C)(C)O2
Result :: 317
